Measured TGI values are reported for all entries that follow.
- Tested on: HL-60(TB) leukemia
- protocol_description: NCI tumour cell line growth inhibition, 48 h
assay_readout: TGI (µM)

| molecule | inequality_sign | observed |
| --- | --- | --- |
| C1C[OH+]CC[OH+]CCNCC[OH+]CC[OH+]CCN1.Cl.[Cl-].[Pt+4] | > | 100 |
| S=C=NC1CCC(c2cc3ccccc3s2)(N2CCCCC2)CC1 (stereo not given) | = | 3.09 |
| Cc1ccc(S(=O)(=O)Nc2ccc(-c3cc(-c4cccc(F)c4)c(C#N)c(N)n3)cc2)cc1 | = | 6.07 |
| Nc1c(F)cc(-c2nc3cc(F)ccc3[se]2)cc1Br | > | 100 |
| CCC[CH2][Pb]([Cl])([CH2]CCC)[CH2]CCC | = | 0.0444 |
| COc1ccc(-c2cc(=O)c3c(O)cc(O)cc3o2)c(OC)c1OC | > | 100 |
| CN1CCN(Cc2ccc(NC(=O)c3cncc(C#Cc4cnc(N)c5cnccc45)c3)cc2C(F)(F)F)CC1 | = | 0.585 |
| CC1(C)OC(=O)C(Cc2ccccc2)(Cc2ccccc2)C(=O)O1 | > | 100 |
| COc1ccc2c(c1OC(C)=O)C1=CC(=O)CCC13CCNC3C2 (stereo not given) | > | 100 |
| CCOC(=O)C(=O)NC12CC3CC(CC(C3)C1)C2 | > | 100 |

----------
Measured TGI values are reported for all entries that follow.
- Tested on: PC-3 prostate
- protocol_description: NCI tumour cell line growth inhibition, 48 h

| compound | TGI |
| --- | --- |
| COc1cc2c[n+](C)c3c(c2cc1OC)Cc1cc2c(cc1-3)OCO2 | > 100 µM |
| CC1=CCC2CC1NC(=O)CCOCCC(=O)NC2(C)C (stereo not drawn) | > 100 µM |
| O=[N+]([O-])c1ccc(Sc2ccncn2)c([N+](=O)[O-])c1 | 15.7 µM |

----------
Measured TGI values are reported for all entries that follow.
- Test system: COLO 205 colon
- protocol_description: NCI tumour cell line growth inhibition, 48 h
assay_readout: TGI

| compound | assay_readout | observed |
| --- | --- | --- |
| CCCN(CCC)C1=Nc2ccccc2-n2cnnc2C1 | TGI | > 100 µM |
| CN(CCCn1ccnc1[N+](=O)[O-])CCCn1ccnc1[N+](=O)[O-] | TGI | > 100 µM |
| COc1cc(/C=N/NC2=NCCCCN2)ccc1O | TGI | > 100 µM |
| CC[C@H](C)[C@H](NC(=O)[C@@]1(O)[C@H](O)[C@]2(CC)C=CCN3CC[C@@]4(c5cc(Br)c(OC)cc5N(C)[C@@H]14)[C@@H]32)C(=O)OC | TGI | 29.2 µM |
| c1ccc2c(NCCCCCCNc3cccc4ccccc34)cccc2c1 | TGI | > 100 µM |
| COC(=O)C1=C(CCC[C@H](C)O[Si](C)(C)C(C)(C)C)NC(=O)N2[C@@H](CCO)CC[C@H]12 | TGI | 34 µM |
| COc1cccc(/C=C\c2ccc(O)cc2)c1 | TGI | > 100 µM |
| COc1ccc(N(C)c2nc(Cl)nc3cnn(C)c23)cc1 | TGI | 0.058 µM |
| O=P(O)(CN1CCN(CP(=O)(O)c2ccccc2)CCN(CP(=O)(O)c2ccccc2)CC1)c1ccccc1 | TGI | > 100 µM |
| CCOP1(=O)C=C(C)C(=C(Cl)Cl)C(C)=C1 (stereo not given) | TGI | 29 µM |
| CCOC(=O)c1cc(C2CCN(Cc3ccccc3)C2=S)c(C(=O)C=[N+]=[N-])[nH]1 (stereo not given) | TGI | > 100 µM |
| O=C(/C=C/OC(=O)c1cccc(Cl)c1)c1ccc(Cl)cc1 | TGI | > 100 µM |
| CCCCCC[C@H](C)NC(=O)c1ccc(Nc2nc3ccccc3c3occc23)cc1 | TGI | 8.45 µM |
| COC[C@H](C)N=CN1CCc2ccccc2C1(Cc1ccccc1)Cc1ccccc1 | TGI | 34.6 µM |
| CN(C)c1ccc(N=C2C=CC(=O)c3ccccc32)cc1 | TGI | 4.15 µM |
| O=c1ccnc2ccc3n[nH][nH]c3c12 | TGI | > 100 µM |
| C#Cc1cccc(NC(=O)c2ccc(NC(=O)CCl)cc2)c1 | TGI | > 82.5 µM |
| Cc1nnc(Sc2nc(C#N)c(C#N)nc2Sc2nnc(C)s2)s1 | TGI | > 53.3 µM |
| O=C1CC2SC(COCc3ccccc3)(CCN2Cc2ccccc2)C1 (stereo not given) | TGI | > 100 µM |
| CN(C(=O)c1ccc(OCCCC(=O)O)c(Cl)c1Cl)C1CCCC1 | TGI | > 100 µM |

----------
Measured TGI values are reported for all entries that follow.
- Tested on: MCF7 breast
- protocol_description: NCI tumour cell line growth inhibition, 48 h

| smiles_str | tested_system | TGI |
| --- | --- | --- |
| O=c1c2ccccc2[nH]c2c(Cl)cc(Cl)c(N3CCCCC3)c12 | MCF7 breast | > 100 µM |
| CC1(C)OC(=O)C(Cc2ccccc2)(Cc2ccccc2)C(=O)O1 | MCF7 breast | > 100 µM |
| Clc1c2ccccc2nc2c1[nH]c1ccccc12 | MCF7 breast | > 100 µM |
| COC(=O)[C@]12CC[C@@H](C)[C@H](C)[C@@H]1C1=CC[C@@H]3[C@@]4(C)C(C=O)=C[C@@](C)(COC(=O)/C=C/c5ccccc5)[C@@H]4[C@H](O)C[C@@]3(C)[C@]1(C)CC2 | MCF7 breast | 11.3 µM |

----------
Measured TGI values are reported for all entries that follow.
- Test system: SNB-75 CNS
- protocol_description: NCI tumour cell line growth inhibition, 48 h

| molecule | tested_system | TGI |
| --- | --- | --- |
| COc1cnc2c(c1)C(=O)c1c-2n(CCCN2CCNCC2)c(=O)c2cc([N+](=O)[O-])ccc12 | SNB-75 CNS | 1.97 µM |
| COC(=O)C1=C(CCC[C@H](C)O[Si](C)(C)C(C)(C)C)NC(=O)N2[C@@H](CCO)CC[C@H]12 | SNB-75 CNS | 30.5 µM |
| O=c1c2c(c1=O)-c1ccccc1CN2 | SNB-75 CNS | > 100 µM |
| COC(=O)C1C=CCON2CCc3c(n(S(=O)(=O)c4ccccc4)c4ccccc34)C12 (centres undefined) | SNB-75 CNS | > 100 µM |
| CCCCCCCCOC(=O)c1cc([N+](=O)[O-])c(Sc2ncnc3nc[nH]c23)c([N+](=O)[O-])c1 | SNB-75 CNS | 9.27 µM |
| COC(=O)/C(C#N)=C(\N)c1c(C)c2ccccc2oc1=N | SNB-75 CNS | > 100 µM |
| S=C=NC1CCC(c2cc3ccccc3s2)(N2CCCCC2)CC1 (centres undefined) | SNB-75 CNS | 4.2 µM |
| CC1CC[P+](c2ccccc2)(c2ccccc2)CC1 | SNB-75 CNS | > 100 µM |
| N#Cc1c(O)c2ccccc2[nH]c1=O | SNB-75 CNS | > 100 µM |
| O=C1O/C(=C\c2ccc(O)cc2)C(c2ccc(O)c(Cl)c2)=C1Cl | SNB-75 CNS | > 100 µM |
| CCOC(=O)C1(Br)S(=O)(=O)OCCOS1(=O)=O | SNB-75 CNS | > 100 µM |
| CC1(C)OC(=O)C(Cc2ccccc2)(Cc2ccccc2)C(=O)O1 | SNB-75 CNS | > 100 µM |
| COC1=CC(=O)c2nc(Cl)ccc2C1=O | SNB-75 CNS | 2.73 µM |
| COCc1c(-c2ccc(NC(=O)Nc3cc(C(F)(F)F)ccc3F)c(F)c2)c2c(N)ncnn2c1CN1CCOCC1 | SNB-75 CNS | 3.25 µM |
| CN(C(=O)c1ccc(OCCCC(=O)O)c(Cl)c1Cl)C1CCCC1 | SNB-75 CNS | > 100 µM |
| COc1cccc(NC(=O)C(=O)C2C=CCS2(=O)=O)c1 (centres undefined) | SNB-75 CNS | > 100 µM |
| CCC[CH2][Pb]([Cl])([CH2]CCC)[CH2]CCC | SNB-75 CNS | 0.114 µM |
| c1ccc([P+](CCCCCC[P+](c2ccccc2)(c2ccccc2)c2ccccc2)(c2ccccc2)c2ccccc2)cc1 | SNB-75 CNS | > 100 µM |
| COc1ccc(OC)c(/C=C/c2nc(SCc3ccccc3)n(-c3ccc(Cl)cc3)n2)c1 | SNB-75 CNS | > 100 µM |
| O=C(O[C@H]1CCN2C[C@H]3C[C@H](CN4C(=O)CCC[C@H]34)[C@@H]2C1)c1ccc(O)cc1 | SNB-75 CNS | > 100 µM |
| CC(=O)Nc1ccc(Sc2nnc(NC(C)=O)s2)cc1 | SNB-75 CNS | > 100 µM |
| NC(Cc1ccc(B(O)O)cc1)C(=O)NC(CO)CO (centres undefined) | SNB-75 CNS | > 100 µM |
| C1CN2CCNCCN(CCN1)CC2 | SNB-75 CNS | > 100 µM |
| O=C1C2C3C=CC(C2C(=O)N1CN1CCSCC1)C1C2C(=O)N(CN4CCSCC4)C(=O)C2C31 (centres undefined) | SNB-75 CNS | > 93 µM |
| CC1(C)C2CCC(O)(C2)C1N (centres undefined) | SNB-75 CNS | > 100 µM |
| C#Cc1cccc(NC(=O)c2ccc(NC(=O)CCl)cc2)c1 | SNB-75 CNS | > 82.5 µM |
| Cc1csc(NNC(=O)Nc2ccccc2)n1 | SNB-75 CNS | > 100 µM |
| Cc1ccc(NC(=O)OCC(COc2ccc(Cl)cc2Cl)OC(=O)Nc2ccc(C)cc2)cc1 (centres undefined) | SNB-75 CNS | 68.2 µM |
| O=c1ccnc2ccc3n[nH][nH]c3c12 | SNB-75 CNS | > 100 µM |
| CCCN1CCC(c2ccc(Nc3nc(Nc4cc(F)ccc4C(N)=O)c4cc[nH]c4n3)c(OC)c2)CC1 | SNB-75 CNS | 7.55 µM |
| O=P(O)(CN1CCN(CP(=O)(O)c2ccccc2)CCN(CP(=O)(O)c2ccccc2)CC1)c1ccccc1 | SNB-75 CNS | > 100 µM |
| CSCCC(C(=O)O)N(CC1(O)OCC(O)C(O)C1O)N=O (centres undefined) | SNB-75 CNS | > 100 µM |
| N#CC1C(=O)NC(c2ccccc2[N+](=O)[O-])c2sc3c(F)cccc3c21 (centres undefined) | SNB-75 CNS | 94.9 µM |
| COc1cc(C=O)cc(O)c1O | SNB-75 CNS | > 100 µM |
| COc1ccc(CCc2cc(OC)c(O)c(OC)c2)cc1 | SNB-75 CNS | > 100 µM |
| CCOC(=O)c1cccnc1C(OC(C)=O)OC(C)=O | SNB-75 CNS | > 100 µM |
| CCOC(=O)C(C(O)c1ccc([N+](=O)[O-])cc1)P(=O)(OCC)OCC (centres undefined) | SNB-75 CNS | > 100 µM |
| COC(=O)C1=NN2c3ccccc3CN([C@@H](C)c3ccccc3)C(=O)[C@@H]2[C@H]1c1ccccc1 | SNB-75 CNS | > 100 µM |
| Cn1cnc([N+](=O)[O-])c1Sc1nccc(=O)[nH]1 | SNB-75 CNS | > 100 µM |
| Cc1cccc2c1c(=O)c1c(O)cc(O)cc1n2C | SNB-75 CNS | > 100 µM |
| Nc1c(F)cc(-c2nc3cc(F)ccc3[se]2)cc1Br | SNB-75 CNS | > 63 µM |
| COc1cccc(/C=C\c2ccc(O)cc2)c1 | SNB-75 CNS | 70.2 µM |
| COc1ccc2c(c1)C(=O)c1c-2c(Nc2cccc(C(C)=O)c2)nc2ccccc12 | SNB-75 CNS | 20.5 µM |
| Cc1cc(Cl)cc(Cc2cc(Cl)cc(C)c2O)c1O | SNB-75 CNS | 7.19 µM |

Cited source for all entries: PubChem BioAssay (NCI)
